# Signal-to-Background (Ratio of Relative Luminescence Units) annotations
- tested_target: T1, Epidermal growth factor receptor 2 (HER2 or ErbB-2) on HER2+ SKOV3 cells (human, UniProt P04626 23-1255)
- T1 construct: whole, on cells; Only claim 72 calls it 'human epidermal growth factor receptor 2 (HER2)'
- experiment: split-luciferase complementation on HER2+ SKOV3 cells (lysates, washed); paired with β9-LPert
Numeric only. Scale: ratio

β10*-G3 (designed binder, DARPin fusion expressed in E. coli, used as lysate; also called DARPin G3 with N-terminal β10*) MVSGWRLFKKISGGGSGHHHHHHHHGGGSGDLGKKLLEAARAGQDDEVRILMANGADVNAKDEYGLTPLYLATAHGHLEIVEVLLKNGADVNAVDAIGFTPLHLAAFIGHLEIAEVLLKHGADVNAQDKFGKTAFDISIGNGNEDLAEILQKLN = 32

Proceeding to the next binder to report its Signal-to-Background (Ratio of Relative Luminescence Units).
Given β10*-9.29 (designed binder, DARPin fusion expressed in E. coli, used as lysate; also called DARPin 9.29 with N-terminal β10*) MVSGWRLFKKISGGGSGHHHHHHHHGGGSGGSDLGKKLLEAARAGQDDEVRILMANGADVNAHDFYGITPLHLAANFGHLEIVEVLLKHGADVNAFDYDNTPLHLAADAGHLEIVEVLLKYGADVNASDRDGHTPLHLAAREGHLEIVEVLLKNGADVNAQDKFGKTPFDLAIDNGNEDIAEVLQKAA , state its recorded Signal-to-Background (Ratio of Relative Luminescence Units).
3
